- assay system: Calcium/calmodulin-dependent protein kinase type IV (Homo sapiens); further: in the data inactive means no Kd found up to 30 µM
- Sequence (Q16566 whole entry): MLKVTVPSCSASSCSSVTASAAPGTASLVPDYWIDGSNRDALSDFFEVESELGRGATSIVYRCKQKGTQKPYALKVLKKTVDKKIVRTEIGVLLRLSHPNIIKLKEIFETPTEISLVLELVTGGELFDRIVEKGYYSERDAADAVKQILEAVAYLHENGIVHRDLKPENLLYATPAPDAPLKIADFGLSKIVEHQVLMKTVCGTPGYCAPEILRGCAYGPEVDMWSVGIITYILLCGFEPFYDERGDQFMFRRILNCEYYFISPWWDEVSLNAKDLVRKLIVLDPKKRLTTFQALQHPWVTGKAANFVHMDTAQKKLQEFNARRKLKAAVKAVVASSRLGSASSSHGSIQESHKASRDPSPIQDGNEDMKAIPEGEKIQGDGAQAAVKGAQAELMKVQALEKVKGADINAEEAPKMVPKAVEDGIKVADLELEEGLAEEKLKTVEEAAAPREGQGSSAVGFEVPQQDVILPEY
The source made the active and inactive calls.
Outcomes: true (1) (active), false (0) (inactive)

[
  {
    "compound": "C[C@@H]1COC(Nc2ccc3ncnc(Nc4ccc(OCc5nccs5)c(Cl)c4)c3c2)=N1",
    "assay system": "Calcium/calmodulin-dependent protein kinase type IV (Homo sapiens)",
    "group": "false (0)"
  },
  {
    "compound": "C[C@]1(O)C[C@@H](c2nc(-c3ccc4ccc(-c5ccccc5)nc4c3)c3c(N)nccn32)C1",
    "assay system": "Calcium/calmodulin-dependent protein kinase type IV (Homo sapiens)",
    "group": "false (0)"
  },
  {
    "compound": "CN(c1ncccc1CNc1nc(Nc2ccc3c(c2)CC(=O)N3)ncc1C(F)(F)F)S(C)(=O)=O",
    "assay system": "Calcium/calmodulin-dependent protein kinase type IV (Homo sapiens)",
    "group": "false (0)"
  },
  {
    "compound": "CCc1nc(C(N)=O)c(Nc2ccc(N3CCC(N4CCN(C)CC4)CC3)c(OC)c2)nc1NC1CCOCC1",
    "assay system": "Calcium/calmodulin-dependent protein kinase type IV (Homo sapiens)",
    "group": "true (1)"
  },
  {
    "compound": "CC(C)(O)CC(=O)NCCn1ccc2ncnc(Nc3ccc(Oc4cccc(C(F)(F)F)c4)c(Cl)c3)c21",
    "assay system": "Calcium/calmodulin-dependent protein kinase type IV (Homo sapiens)",
    "group": "false (0)"
  },
  {
    "compound": "C=CC(=O)Nc1cccc(Nc2nc(Nc3ccc(N4CCN(C(C)=O)CC4)cc3OC)ncc2C(F)(F)F)c1",
    "assay system": "Calcium/calmodulin-dependent protein kinase type IV (Homo sapiens)",
    "group": "false (0)"
  },
  {
    "compound": "COc1cc(F)c(F)c(Nc2ccc(I)cc2F)c1NS(=O)(=O)C1(C[C@H](O)CO)CC1",
    "assay system": "Calcium/calmodulin-dependent protein kinase type IV (Homo sapiens)",
    "group": "false (0)"
  },
  {
    "compound": "O=S(=O)(c1cccc2cnccc12)N1CCCNCC1",
    "assay system": "Calcium/calmodulin-dependent protein kinase type IV (Homo sapiens)",
    "group": "false (0)"
  },
  {
    "compound": "O=c1[nH]c([C@@H]2CCCN2)nc2c1oc1ccc(Cl)cc12",
    "assay system": "Calcium/calmodulin-dependent protein kinase type IV (Homo sapiens)",
    "group": "false (0)"
  },
  {
    "compound": "COc1cc2nccc(Oc3ccc(NC(=O)C4(C(=O)Nc5ccc(F)cc5)CC4)cc3)c2cc1OC [CABOZANTINIB]",
    "assay system": "Calcium/calmodulin-dependent protein kinase type IV (Homo sapiens)",
    "group": "false (0)"
  },
  {
    "compound": "CC(C)CC(=O)Nc1[nH]nc2c1CN(C(=O)C1CCN(C)CC1)C2(C)C",
    "assay system": "Calcium/calmodulin-dependent protein kinase type IV (Homo sapiens)",
    "group": "false (0)"
  },
  {
    "compound": "Cn1c(=O)n(-c2ccc(C(C)(C)C#N)cc2)c2c3cc(-c4cnc5ccccc5c4)ccc3ncc21",
    "assay system": "Calcium/calmodulin-dependent protein kinase type IV (Homo sapiens)",
    "group": "false (0)"
  },
  {
    "compound": "COc1cc(Nc2ncc(F)c(Nc3ccc4c(n3)N(COP(=O)(O)O)C(=O)C(C)(C)O4)n2)cc(OC)c1OC",
    "assay system": "Calcium/calmodulin-dependent protein kinase type IV (Homo sapiens)",
    "group": "false (0)"
  },
  {
    "compound": "Cc1c(NC(=O)OC[C@@H]2COCCN2)cn2ncnc(Nc3ccc4c(cnn4Cc4cccc(F)c4)c3)c12",
    "assay system": "Calcium/calmodulin-dependent protein kinase type IV (Homo sapiens)",
    "group": "false (0)"
  },
  {
    "compound": "CN1CCN(c2nc(C3=C(c4c[nH]c5ccccc45)C(=O)NC3=O)c3ccccc3n2)CC1",
    "assay system": "Calcium/calmodulin-dependent protein kinase type IV (Homo sapiens)",
    "group": "false (0)"
  },
  {
    "compound": "N#CCNC(=O)c1ccc(-c2ccnc(Nc3ccc(N4CCOCC4)cc3)n2)cc1",
    "assay system": "Calcium/calmodulin-dependent protein kinase type IV (Homo sapiens)",
    "group": "false (0)"
  },
  {
    "compound": "CNC(=O)c1cc(COc2nnc(Nc3ccc(Cl)cc3)c3ccoc23)ccn1",
    "assay system": "Calcium/calmodulin-dependent protein kinase type IV (Homo sapiens)",
    "group": "false (0)"
  },
  {
    "compound": "O=C(O)c1ccc2c(c1)nc(Nc1cccc(Cl)c1)c1ccncc12",
    "assay system": "Calcium/calmodulin-dependent protein kinase type IV (Homo sapiens)",
    "group": "false (0)"
  },
  {
    "compound": "COc1cc2ncnc(Nc3ccc(O)cc3)c2cc1OC",
    "assay system": "Calcium/calmodulin-dependent protein kinase type IV (Homo sapiens)",
    "group": "false (0)"
  }
]

* * *

The following are reported Kd results, target or system Macrophage-stimulating protein receptor (Homo sapiens, UniProt Q04912). Further: in the data inactive means no Kd found up to 30 µM.
Calls of active or inactive are those of the source.
measured property: Kd

[
  {
    "compound": "COCCN1CCN(Cc2ccc(-c3n[nH]c4c3C(=O)c3c(NC(=O)NN5CCOCC5)cccc3-4)cc2)CC1",
    "assay system": "Macrophage-stimulating protein receptor (Homo sapiens, UniProt Q04912)",
    "result value": "> 30 µM (inactive)"
  },
  {
    "compound": "COc1cc2ncnc(Nc3ccc(F)c(Cl)c3)c2cc1NC(=O)/C=C/CN1CCCCC1 [DACOMITINIB ANHYDROUS]",
    "assay system": "Macrophage-stimulating protein receptor (Homo sapiens, UniProt Q04912)",
    "result value": "> 30 µM (inactive)"
  },
  {
    "compound": "C=CC(=O)Nc1cccc(Nc2nc(Nc3ccc(N4CCN(C(C)=O)CC4)cc3OC)ncc2C(F)(F)F)c1",
    "assay system": "Macrophage-stimulating protein receptor (Homo sapiens, UniProt Q04912)",
    "result value": "> 30 µM (inactive)"
  },
  {
    "compound": "CC(C)CC(=O)Nc1[nH]nc2c1CN(C(=O)C1CCN(C)CC1)C2(C)C",
    "assay system": "Macrophage-stimulating protein receptor (Homo sapiens, UniProt Q04912)",
    "result value": "> 30 µM (inactive)"
  },
  {
    "compound": "CN1CCN(c2nc(C3=C(c4c[nH]c5ccccc45)C(=O)NC3=O)c3ccccc3n2)CC1",
    "assay system": "Macrophage-stimulating protein receptor (Homo sapiens, UniProt Q04912)",
    "result value": "> 30 µM (inactive)"
  }
]

* * *

- assay system: Calcium/calmodulin-dependent protein kinase kinase 2 (Homo sapiens); further: in the data inactive means no Kd found up to 30 µM
- Sequence (Q96RR4 whole entry): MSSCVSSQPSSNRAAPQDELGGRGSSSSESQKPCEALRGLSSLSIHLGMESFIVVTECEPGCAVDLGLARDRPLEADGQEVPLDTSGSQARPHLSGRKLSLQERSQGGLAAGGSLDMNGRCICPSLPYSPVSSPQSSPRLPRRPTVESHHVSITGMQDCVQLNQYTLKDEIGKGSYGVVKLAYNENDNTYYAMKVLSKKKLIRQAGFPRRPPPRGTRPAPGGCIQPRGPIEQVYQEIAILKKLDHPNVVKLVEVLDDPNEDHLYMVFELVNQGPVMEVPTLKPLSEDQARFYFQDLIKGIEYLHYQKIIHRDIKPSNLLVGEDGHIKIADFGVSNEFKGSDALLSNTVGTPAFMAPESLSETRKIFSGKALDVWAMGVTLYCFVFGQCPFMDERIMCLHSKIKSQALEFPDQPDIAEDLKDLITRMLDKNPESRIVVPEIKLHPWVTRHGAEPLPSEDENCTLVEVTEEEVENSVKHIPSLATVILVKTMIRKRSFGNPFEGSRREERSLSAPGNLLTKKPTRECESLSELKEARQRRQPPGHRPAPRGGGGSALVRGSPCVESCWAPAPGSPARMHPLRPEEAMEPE
Calls of active or inactive are those of the source.
Labels: class 1 (active), class 0 (inactive)

[
  {
    "compound": "COc1cc2nccc(Oc3ccc(NC(=O)C4(C(=O)Nc5ccc(F)cc5)CC4)cc3)c2cc1OC [CABOZANTINIB]",
    "group": "class 0"
  },
  {
    "compound": "CCc1nc(C(N)=O)c(Nc2ccc(N3CCC(N4CCN(C)CC4)CC3)c(OC)c2)nc1NC1CCOCC1",
    "group": "class 1"
  },
  {
    "compound": "O=c1[nH]c([C@@H]2CCCN2)nc2c1oc1ccc(Cl)cc12",
    "group": "class 0"
  },
  {
    "compound": "COc1ccc2c(OCc3nnc4ccc(-c5ccccc5)nn34)ccnc2c1",
    "group": "class 0"
  }
]

* * *

- assay system: Ribosomal protein S6 kinase alpha-1 (Homo sapiens, UniProt Q15418); further: in the data inactive means no Kd found up to 30 µM
- Sequence (Q15418 whole entry): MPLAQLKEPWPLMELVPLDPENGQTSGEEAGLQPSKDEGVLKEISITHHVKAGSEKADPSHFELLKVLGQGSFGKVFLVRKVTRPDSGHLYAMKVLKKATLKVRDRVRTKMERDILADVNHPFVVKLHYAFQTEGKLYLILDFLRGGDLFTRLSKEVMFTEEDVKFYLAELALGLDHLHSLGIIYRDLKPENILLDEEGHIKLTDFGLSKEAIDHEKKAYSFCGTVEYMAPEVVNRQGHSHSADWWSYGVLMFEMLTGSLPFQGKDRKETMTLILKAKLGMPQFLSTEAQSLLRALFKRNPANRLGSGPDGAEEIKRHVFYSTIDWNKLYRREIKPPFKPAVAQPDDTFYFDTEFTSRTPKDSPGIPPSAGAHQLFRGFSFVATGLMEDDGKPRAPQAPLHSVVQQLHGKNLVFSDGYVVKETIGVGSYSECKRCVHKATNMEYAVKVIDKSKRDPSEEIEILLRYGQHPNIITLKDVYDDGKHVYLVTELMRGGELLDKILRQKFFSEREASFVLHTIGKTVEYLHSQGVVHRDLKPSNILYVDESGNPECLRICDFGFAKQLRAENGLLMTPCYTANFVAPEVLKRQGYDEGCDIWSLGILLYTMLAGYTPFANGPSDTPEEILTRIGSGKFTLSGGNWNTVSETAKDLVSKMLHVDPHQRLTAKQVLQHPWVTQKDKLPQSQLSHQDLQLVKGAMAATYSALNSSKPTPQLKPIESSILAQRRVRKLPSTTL
Activity calls are given as the source filed them.
Labels: active, inactive

[
  {
    "molecule": "COc1ccc(-c2ccc3ncc4c(c3c2)n(-c2ccc(N3CCNCC3)c(C(F)(F)F)c2)c(=O)n4C)cn1 [BGT-226 FREE BASE]",
    "group": "inactive"
  },
  {
    "molecule": "O=c1[nH]c([C@@H]2CCCN2)nc2c1oc1ccc(Cl)cc12",
    "group": "inactive"
  },
  {
    "molecule": "Cc1cc(C(=O)Nc2cc(Oc3ccc4nc(NC(=O)C5CC5)cn4n3)ccc2C)n(C)n1",
    "group": "inactive"
  },
  {
    "molecule": "CCc1nc(C(N)=O)c(Nc2ccc(N3CCC(N4CCN(C)CC4)CC3)c(OC)c2)nc1NC1CCOCC1",
    "group": "active"
  },
  {
    "molecule": "COc1cc2nccc(Oc3ccc(NC(=O)C4(C(=O)Nc5ccc(F)cc5)CC4)cc3)c2cc1OC [CABOZANTINIB]",
    "group": "inactive"
  },
  {
    "molecule": "CCOc1ccn(-c2ccc(F)cc2)c(=O)c1C(=O)Nc1ccc(Oc2ccnc(N)c2Cl)c(F)c1",
    "group": "inactive"
  },
  {
    "molecule": "CC1(COc2ccc3c(c2)ncn3-c2ccc3cccc(N4CCC(N)CC4)c3n2)COC1",
    "group": "inactive"
  },
  {
    "molecule": "C=CC(=O)Nc1cc(Nc2nccc(-c3cn(C)c4ccccc34)n2)c(OC)cc1N(C)CCN(C)C",
    "group": "inactive"
  },
  {
    "molecule": "O=C(O)c1ccc2c(c1)nc(Nc1cccc(Cl)c1)c1ccncc12",
    "group": "active"
  },
  {
    "molecule": "O=C(NOC[C@H](O)CO)c1ccc(F)c(F)c1Nc1ccc(I)cc1F",
    "group": "inactive"
  },
  {
    "molecule": "CCN1CCN(Cc2ccc(Nc3ncc(F)c(-c4cc(F)c5nc(C)n(C(C)C)c5c4)n3)nc2)CC1",
    "group": "inactive"
  }
]
